Assign IC50 (read off the curve) to each entry below.
TARGET DESC: T1, canine CTLA-4 (cCTLA-4) recombinant protein (canine, UniProt Q9XSI1 38-161, limits assumed)
T1 construct: also called canine Cytotoxic T-Lymphocyte-Associated protein 4; CD152
T1 chain: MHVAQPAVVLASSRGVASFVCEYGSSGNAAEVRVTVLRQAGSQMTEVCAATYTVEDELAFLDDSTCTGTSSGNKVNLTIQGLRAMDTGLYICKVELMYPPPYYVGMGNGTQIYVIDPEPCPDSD
ASSAY PROTOCOL: blocking ELISA: cCTLA-4 coated at 200 ng/well, antibody dilutions mixed with 100 ng/well biotinylated canine CD86 (the blocked ligand), streptavidin-HRP, OD450/540 (Example 4)

Completed entries (count: 5):
>  <BINDER>
Mouse-canine chimeric antibody 45A9 (antibody, V domains shown, Mouse variable regions fused to canine constant heavy chain and canine kappa; HEK 293, protein A) VH: QIQLVQSGPELKKPGETVKISCKASGYTFTNYGMNWVKQAPGKGLKWMGWINTYTGEPTYADDFKGRFAFSLETSASTAYLQINNLKNEDTATYFCARRGTYYRPWGQGTTLTVSS VL: DVLMTQTPLSLPVSLGDQASISCRSSQSIVYSHGNTYLEWYLQKPGQSPKVLIYKVSNRFSGVPDRFSGSGSGTDFTLKISRVEAEDLGVYYCFQGSHVPWTFGGGTKLEIKR

>  <VAL>
~0.1 µg/mL

$$$$
>  <BINDER>
Mouse-canine chimeric antibody 12B3 (antibody, V domains shown, expressed in HEK 293 cells, purified on protein A; also called chimera of 12B3) VH: QIQLVQSGPELKKPGETVKISCKASGYTFTNYGMNWVKQAPGKGLKWMGWINTYTGEPTYADDFKGRFAFSLETSASTAYLQINNLKNEDMATYFCARRSIYYPYWGQGTTLTVSS VL: DVLMTQTPLSLPVSLGDQASISCRSSQSIVYSNGNTYLEWYLQKPGQSPKLLIYKVSNRFSGVPDRFSGSGSGTDFTLKISRVEAEDLGVYYCFQGSHVPWTFGGGTKLEIKR

>  <VAL>
~0.1 µg/mL

$$$$
>  <BINDER>
Mouse-canine chimeric antibody 22A11 (antibody, V domains shown, Mouse variable regions fused to canine constant heavy chain and canine kappa; HEK 293, protein A) VH: QVQLQQPGTELVKPGASVKLSCKASGYTFTSYWMHWVKQRPGQGLEWIGNINPSNGGTRFNEKFKNKATLTEDKSSSTAYMQLSSLTSEDSAVYYCARSNYGSGWAWFAYWGQGTLVTVSA VL: DIQMNQSPSSLSASLGDTITITCHASQNINVWLSWYQQKPGNIPKLLIYKSSNLHTGVPSRFSGSGSGTGFTLTISSLQPEDIATYYCQQGQSYPWTFGGGTKLEIKR

>  <VAL>
~0.3 µg/mL

$$$$
>  <BINDER>
Mouse-canine chimeric antibody 39A11 (antibody, V domains shown, Mouse variable regions fused to canine constant heavy chain and canine kappa; HEK 293, protein A; also called chimera of 39A11) VH: EVKLVESGGGLVQPGGSLSLSCATSGFTFSDYYMSWVRQSPGKALEWMGFIRNKANGYTTEYSASLKGRFTISRDNSQSILYLQMNVLRAEDSATYYCVRFGLMYYFDYWGQGTTLTVSS VL: ENVLIQSPAIMSASPGEKVTMTCRASSSVSSSYLHWYQQKSGASPKLWIFSTSNLASGVPARFSGSGSGTSYSLTINSVEAEDAATYYCQQYSGLPLTFGGGTKLEIKR

>  <VAL>
~0.1 µg/mL

$$$$
>  <BINDER>
Mouse-canine chimeric antibody 110E3 (antibody, V domains shown, Mouse variable regions fused to canine constant heavy chain and canine kappa; HEK 293, protein A) VH: QIQLVQSGPELKKPGETVKISCKASGYTFTNYGMNWVKQAPGKGLKWMGWINTYTGEPTYADDFKGRVAFSLETSASTAFLQINNLKNEDTATYFCARRGVRLDYWGQGTTLTVSS VL: DVLMTQTPLSLPVSLGDQASISCRSSQSIVYISGSTYLEWYLQKPGQSPKLLIYKVSSRFSGVPDRFSGSGSGTDFTLKISRVEAEDLGVYYCFQGSHVPWTFGGGTKLEIKR

>  <VAL>
~0.1 µg/mL

$$$$

Now consider the entry below.
Req: Report IC50 (read off the curve) for Mouse-canine chimeric antibody 27G12 (antibody, V domains shown, Mouse variable regions fused to canine constant heavy chain and canine kappa; HEK 293, protein A) VH: QIQLVQSGPELKKPGETVKISCKASGYTFTTYGVSWVKQAPGKGLRWMGWINTYSGMPTYVDDFKGRFAFSLETSASTAFLQINNLKNEDTAIYFCARRGISFDYWGQGTTLTVSS VL: DVLMTQTPLSLPVSLGDHASISCKSSQSIVYINGNTYLEWYLQKPGQSPKLLIYKVSKRFSGVPDRFSGSGSGTDFTLKISRVEAEDLGVYYCFQGSHVPWTFGGGTKLEIKR please.
Resp: ~0.1 µg/mL
